# system: PTPN2 (Homo sapiens (Human))
# Sequence (P17706 whole entry): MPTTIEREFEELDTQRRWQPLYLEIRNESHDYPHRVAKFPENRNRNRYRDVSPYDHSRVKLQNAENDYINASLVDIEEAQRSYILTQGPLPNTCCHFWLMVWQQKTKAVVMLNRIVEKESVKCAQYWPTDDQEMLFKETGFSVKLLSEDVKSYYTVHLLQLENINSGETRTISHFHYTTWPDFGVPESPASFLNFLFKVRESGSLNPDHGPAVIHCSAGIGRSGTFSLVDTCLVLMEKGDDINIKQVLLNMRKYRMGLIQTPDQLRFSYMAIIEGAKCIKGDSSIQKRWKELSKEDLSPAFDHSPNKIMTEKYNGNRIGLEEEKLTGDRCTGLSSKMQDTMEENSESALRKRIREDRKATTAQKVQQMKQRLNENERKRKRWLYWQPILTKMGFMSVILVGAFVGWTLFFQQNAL
# procedure-text: Phosphatase activity assay using DiFMUP as substrate
# Format: biochemical
# run-parameters: 0.15 nM PTPN2, read-out: PTPN2 BChem DIFMUP IC50
# Description: The PTPN2 biochemical assay was performed as follows, a 5× stock solution of human PTPN2 (SRP5075, MilliporeSigma, Burlington, MA) and a 1.25× stock solution of DiFMUP (D6567, ThermoFisher Scientific, Waltham, MA), were prepared in 1× reaction buffer consisting of 50 mM HEPES, pH 7.4, 1 mM EDTA, 150 mM NaCl, 0.2 mg/mL BSA, 100 U/mL catalase and 10 mM DTT. […]
measurement-type: IC50 (nM)
Express your answer in nM, writing the number without its unit.

Q: Can you look up the measured IC50 of O=C1CN(c2c(F)cc(CNc3cc(C4CC4)ccn3)c3cn[nH]c23)S(=O)(=O)N1 [Example 4] for me?
A: 2

Q: Report IC50 for COc1cc(C)nc(NCc2cc(F)c(N3CC(=O)NS3(=O)=O)c3[nH]ncc23)c1 [Example 9] please.
A: 1

Q: I would be grateful if you could share the reported IC50 for Cc1cc(NCc2cc(F)c(N3CC(=O)NS3(=O)=O)c3[nH]ncc23)ncc1C#N [Example 8] .
A: 67
